test system: MS2 coat protein; experiment: apparent KD of MS2 coat protein; higher = weaker reporter binding; details: Eterna round: R107; input ligand: theophylline 20 uM
I would appreciate it if you labelled entries Yes when apparent KD of MS2 coat protein is 40 nM or higher, otherwise No.

Evaluate GCGUUCUCUGCGGCCGCCACUCAAGGAGCUACAUAGCUCCUAGACAUGAGGAUCACCCAUGUCGCGAGGACCGGGUAGAUCCUUA [Same State Typptophan B GF8] : apparent KD of MS2 coat protein at minimum 40 nM?
Yes

Evaluate UACCGAUGAAGAAGGAGCGUGCGUGGUUCACAUGAGGAUCACCCAUGUGCUUUAUACUAGGCACAGGUAGGUCGCUUCAUCGGUA [SSAB NP+V+V2 #22] : apparent KD of MS2 coat protein at minimum 40 nM?
No

Evaluate CAGAGCUACCGGGAUACCAGAAUUGGUAUUCCUAUAUUUCUUACAUGAGGAUCACCCAUGUUCCCUUGGCAGCUUGGUAGCUCUG [ETHB #9] : apparent KD of MS2 coat protein at minimum 40 nM?
Yes

Evaluate AAAAGAGGUGGAAGGAGCGGGAGACAUGAGGAUCACCCAUGUGAUAUGACAAGAGGAUCAGCCCAGGUAGGUCGCCAUGUCGAAA [pbbbmullin] : apparent KD of MS2 coat protein at minimum 40 nM?
Yes

Evaluate GCCUAGCAGCGAAGGAGCGACAUCGGCGCAUGCGAGGACAUGAGGAUCACCCAUGUACCAUGUCAGGUAGGUCGCGCUGCUAGGC [EAB NP+V+V2 #6] : apparent KD of MS2 coat protein at minimum 40 nM?
No

Evaluate UCCUGCAGAGCGGCCGCCACUGUGUUGCGUGAGGAUGACCCAACAUGAGGAUCACCCAUGUUGUUUAGGACCGGGCUUGCCUCGA [xcmulliny] : apparent KD of MS2 coat protein at minimum 40 nM?
No

====

test system: MS2 coat protein; test: apparent KD of MS2 coat protein; higher = weaker reporter binding; details: Eterna round: R107; input ligand: arginine 13.2 mM
Record form. Attribute: apparent KD of MS2 coat protein. Fill in for each entry.
Please state the figure in nM; there is no need to write the unit.

Enter apparent KD of MS2 coat protein (test system MS2 coat protein) for AACAUACAGUUUUAGGUGGAUAUAAGGCGGCGAGGACCGGUACGGCCGCCACUCGCGUACAUGAGGAUCACCCAUGUCUGAAGCU [Same State - Tryptophan A (Freestyle 7)]
24.4

Enter apparent KD of MS2 coat protein (test system MS2 coat protein) for AGCUUGUAGUCGGCCGCCACUAAUAGGGAUCCUAUCGAGGCGGGUAACAUGAGGAUCACCCAUGUUAGGACCGGGACAGCGAGGA [Cetian]
10

Enter apparent KD of MS2 coat protein (test system MS2 coat protein) for CAUAAUUUAUCCUAUAAAACUAUUAGUGAUACCAGCACCUCAUGAUGCCCUUGGCAGCACUUACAUGAGGAUCACCCAUGUUUUA [JR_NU_SSTheophyA_Sub029]
99.6

Enter apparent KD of MS2 coat protein (test system MS2 coat protein) for CGAAUAUAGACGGCCGCCACUCUACAAACAUGAGGAUCACCCAUGUUCACAUAGUGGAAACACAUGAGGACCGGGUCAUAGGCUU [#19 Same State - Tryptophan B]
23.2

Enter apparent KD of MS2 coat protein (test system MS2 coat protein) for AACAGGGCUUCCACGAAGCCCUAAGGUGAUACCAGCACAUGUAAGUGCCCUUGGCAGCACGGUACAUGAGGAUCACCCAUGUAGA [Gerara]
19.9

Enter apparent KD of MS2 coat protein (test system MS2 coat protein) for UUCUACAUGAGGAUCACCCAUGUAAACGAUACCAGACGAGUAUUAGUCCCUUGGCAGCGUAGAGUGUCGUUUAUAGUAGGAUACC [TheoA-ms2@5]
23.4

Enter apparent KD of MS2 coat protein (test system MS2 coat protein) for AUAAAUAUAACCGAUACCAGCCUUAUACAUGAGGAUCACCCAUGUUAUGCUUCCUUUUUUGGCCCUUGGCAGCGGAAAUGGGUAA [AstrosSSTheB#2]
47.6

Enter apparent KD of MS2 coat protein (test system MS2 coat protein) for ACAUGAGGAUCACCCAUGUUCCUCAUUGAUACCAGUGAAUUUAGACGCCCUUGGCAGCGAGUUUUUUAAGAAGAAGUUUUUUUUU [6.E]
551

Enter apparent KD of MS2 coat protein (test system MS2 coat protein) for GCACCAGGUACGGAUACCAGCUAUAGGUACAUGUCAGGACAUGAGGAUCACCCAUGUGGUAGCCCUUGGCAGCUGUACCUGGUGC [EThB NP+V+V2 #2]
18.5

Enter apparent KD of MS2 coat protein (test system MS2 coat protein) for GACAUGAGGAUCACCCAUGUACCGCGAGAAGGAGCGCGGAUAAACGCAGGUAGGUCGCUCGUGGGCUUACAUUCAAGUGUAAGCU [Usarat]
49

Enter apparent KD of MS2 coat protein (test system MS2 coat protein) for UAAUACCAGGUCAACGUACCAGGUGAUCAACGAGGACCGGUACGGCCGCCACUCGAAACAUGAGGAUCACCCAUGUAAGACCUGG [|T'-M'-Trp-Ms2|_Design 2_ML2]
20.9

Enter apparent KD of MS2 coat protein (test system MS2 coat protein) for AAUAAUCUAGGUGAUACCAGCUCAACAUGAGGAUCACCCAUGUACUCAUGUAGAGUUGAGAGCCCUUGGCAGCACCUAGAUAAUA [(Theo1)-(Ms2)-(M)'-(T)'-(Theo2)]
198

====

tested on: K4 kissing-loop RNA reporter; test: apparent KD of K4 kissing-loop reporter; higher = weaker reporter binding; details: Eterna round: R107; input ligand: tryptophan 2.4 mM;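 note: bound reporter read as fluorescence of individual clusters on recovered sequencing chips by microscopy, with normalized cluster intensities fitted with a binding model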
measured-attribute: apparent KD of K4 kissing-loop reporter (nM)
Please state the figure in nM; there is no need to write the unit.

Read off the recorded apparent KD of K4 kissing-loop reporter for GGAUUGCCAGUGAUGUUGGCAUAAUCUGAAGGAGCGCGUGAAAACGCAGGUAGGUCGCAGAACCUUGCCAACUGAUCGAAAGAUC [Ex Arginine A K4 30]
150

Read off the recorded apparent KD of K4 kissing-loop reporter for UUACCAAGUGAUGUUUGGAAAUAUCCUAGGCAGGAUAUGCGGAAACGCAGAAGGGCCACCUUAUAGUGAAGGAAACUUCGCUAUU [Ex FMN A 2]
142

Read off the recorded apparent KD of K4 kissing-loop reporter for UAGCGAUGAAGUGAUACCAGAGAGUGAUGUUCUUUUUUUAUUCAGAAUACUGUCGCCUUGCUCCCUUGGCAGCACGCAGGCGCAG [theeternabot_exclusion_KL_Theo_B_18]
171

Read off the recorded apparent KD of K4 kissing-loop reporter for UGUACCGAGUCAGGAUAUCAACGACUGACAAAAGUCGGUCGAAUAUCCAGUGAUGUUGGAAAUAAAUGAGAAGGGACUUGGUACU [FmnBS 14 #SwitchBubble #StaticStem]
265

Read off the recorded apparent KD of K4 kissing-loop reporter for UCAUCGGUACAAGGAUAUUAGAGGUAGUGAUGUUACCCGUUUUUUAUACAUCGAUGUCACCCUAACUAAGAAGGUGUUCAAACUU [theeternabot_exclusion_KL_FMN_B_7]
38.4

Read off the recorded apparent KD of K4 kissing-loop reporter for UACGUAGAGCGAGGAUAUCCUUCCCACGUCGAAGUACCGUGCUUGAUGGAGUGAUGUUCGAUCAGAGGAGAAGGUGCGAAACGUC [Flavin Switch Lower Fold Energy]
524

Read off the recorded apparent KD of K4 kissing-loop reporter for GGCCGGAAGGCGAGCGCUCCCACUCCGGAAGGAGCGCCCGCAAGGGCAGGUAGGUCGCCGGAGUGAUGUUCCGGUGGAGGGCUCG [#2 Exclusion - Arginine A Attempt #20 (Inspired by Omei)]
136

Read off the recorded apparent KD of K4 kissing-loop reporter for UCCACGCUUAGAGGAUAUCGGAUUAGAGUGAUGUUCUAAAGAAGCCCAGUGAUGUUGGAUGGUAUACGAGAAGGCUGAGGCGUGG [Same State FMN B GF 3]
492

Read off the recorded apparent KD of K4 kissing-loop reporter for AACGCAAGUUGUCUGGUAGACAUUUCAGAUACCAGACAUAGUGAUGUCCCUUGGCAGCUGAACAUCCAGUGAUGUUGGAUACGUU [Theo A SS t11a]
400

Read off the recorded apparent KD of K4 kissing-loop reporter for UACAUAUAGUUAUUUCUACAUUUAUUUAGUCAGGAUAUCGAUUAGACGAGAAGGGACAAUAUCAAGUGAUGUUUGAUAAUUCAAA [JR_ExcFMNA_Sub011]
53.2

Read off the recorded apparent KD of K4 kissing-loop reporter for CCCGGGUCGUCAGGAUAUGAGUGCAGUGAUGUUGCACGGGUCUUUGCAGGCCCUGGUGAGGCGUACUCAGAAGGGACGCCAGGUC [Atazazaed]
133
